TESTED_ON: T1, human CCR8 (human, UniProt P51685 1-355)
T1 construct: Native CCR8 on human PBMC (CCR8+ CD3+ or CCR8+ CD4+ lymphocytes); also called chemokine (C-C motif) receptor 8
ASSAY_PROCEDURE: flow blocking, PBMC CCR8+CD3+; competitor PE-AB8
ENDPOINT_NAME: MFI

>>> obs_value("AB6 (antibody, V domains shown, Hybridoma monoclonal; Same VH/VL entries as AB5; also called antibody 6; clone 6) VH: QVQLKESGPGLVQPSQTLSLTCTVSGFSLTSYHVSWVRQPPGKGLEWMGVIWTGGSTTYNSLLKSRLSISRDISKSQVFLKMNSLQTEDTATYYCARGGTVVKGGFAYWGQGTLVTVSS VL: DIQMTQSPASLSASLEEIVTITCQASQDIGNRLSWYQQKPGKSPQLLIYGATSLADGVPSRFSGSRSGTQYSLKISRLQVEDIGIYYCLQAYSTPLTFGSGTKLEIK")
787
>>> obs_value("AB10 (antibody, V domains shown, Hybridoma monoclonal; also called antibody 10; clone 10) VH: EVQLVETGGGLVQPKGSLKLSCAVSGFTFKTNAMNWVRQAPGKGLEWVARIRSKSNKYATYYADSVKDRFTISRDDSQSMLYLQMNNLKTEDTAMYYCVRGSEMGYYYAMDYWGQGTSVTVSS VL: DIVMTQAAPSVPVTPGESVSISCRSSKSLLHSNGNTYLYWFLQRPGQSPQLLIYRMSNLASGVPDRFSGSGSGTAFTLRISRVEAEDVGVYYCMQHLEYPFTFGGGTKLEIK")
575
>>> obs_value("AB8 (antibody, V domains shown, Hybridoma monoclonal; also called antibody 8; clone 8) VH: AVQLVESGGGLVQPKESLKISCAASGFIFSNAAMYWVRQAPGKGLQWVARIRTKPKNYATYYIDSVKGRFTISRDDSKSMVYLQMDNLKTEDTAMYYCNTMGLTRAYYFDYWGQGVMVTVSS VL: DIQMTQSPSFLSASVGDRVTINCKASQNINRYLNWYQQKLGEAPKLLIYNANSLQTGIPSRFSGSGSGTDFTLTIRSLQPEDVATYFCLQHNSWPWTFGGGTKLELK")
870
>>> obs_value("AB11 (antibody, V domains shown, Hybridoma monoclonal; also called antibody 11; clone 11) VH: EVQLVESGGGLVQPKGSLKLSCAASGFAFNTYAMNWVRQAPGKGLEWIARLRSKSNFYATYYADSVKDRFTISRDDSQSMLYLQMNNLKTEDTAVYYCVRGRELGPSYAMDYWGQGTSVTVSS VL: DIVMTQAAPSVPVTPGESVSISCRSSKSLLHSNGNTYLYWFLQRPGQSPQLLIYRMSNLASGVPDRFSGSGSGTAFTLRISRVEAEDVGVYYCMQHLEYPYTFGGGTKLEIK")
977
>>> obs_value("AB5 (antibody, V domains shown, Hybridoma monoclonal; Same VH/VL entries as AB6; also called antibody 5; clone 5) VH: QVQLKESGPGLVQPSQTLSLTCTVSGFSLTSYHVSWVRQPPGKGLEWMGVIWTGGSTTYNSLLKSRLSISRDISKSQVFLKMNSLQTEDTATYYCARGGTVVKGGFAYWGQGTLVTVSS VL: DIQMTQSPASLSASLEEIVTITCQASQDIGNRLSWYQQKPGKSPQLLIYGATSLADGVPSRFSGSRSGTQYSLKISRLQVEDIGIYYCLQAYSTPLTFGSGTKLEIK")
1120
>>> obs_value("AB7 (antibody, V domains shown, Hybridoma monoclonal; also called antibody 7; clone 7) VH: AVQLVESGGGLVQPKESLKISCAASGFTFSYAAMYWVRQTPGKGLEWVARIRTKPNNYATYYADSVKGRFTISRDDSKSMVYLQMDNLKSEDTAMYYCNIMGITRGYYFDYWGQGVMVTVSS VL: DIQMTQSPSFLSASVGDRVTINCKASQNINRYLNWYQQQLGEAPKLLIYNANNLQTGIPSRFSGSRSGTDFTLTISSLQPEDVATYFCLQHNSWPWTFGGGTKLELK")
873
>>> obs_value("AB13 (antibody, V domains shown, Hybridoma monoclonal; also called antibody 13; clone 13) VH: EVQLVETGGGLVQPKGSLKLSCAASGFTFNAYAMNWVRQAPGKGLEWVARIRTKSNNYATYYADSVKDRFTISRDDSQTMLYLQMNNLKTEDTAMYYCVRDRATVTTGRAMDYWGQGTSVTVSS VL: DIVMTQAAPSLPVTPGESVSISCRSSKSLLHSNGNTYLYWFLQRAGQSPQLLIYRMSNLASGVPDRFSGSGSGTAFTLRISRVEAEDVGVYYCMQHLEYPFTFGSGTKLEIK")
664
